Target: T1, human TREML1 ECD (human, UniProt Q86YW5 16-162)
T1 construct: Any tags are not described; also called soluble TREML1; soluble TLT1
T1 sequence: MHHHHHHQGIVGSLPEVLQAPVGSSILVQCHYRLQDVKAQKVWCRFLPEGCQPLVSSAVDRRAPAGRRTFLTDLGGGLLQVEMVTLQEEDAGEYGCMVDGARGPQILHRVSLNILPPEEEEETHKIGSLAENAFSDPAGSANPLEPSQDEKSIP
Test: solid phase binding assay (ELISA), antigen coated
PROPERTY: pEC50
Here pEC50 is given on a logarithmic scale as minus log10 of the concentration in mol/L.

These recorded examples may help you get a feel for the data.
{"columns": ["BINDER", "pEC50"],
 "data": [
  ["Anti-TREML1 Antibody Clone 18D8 (antibody, V domains shown, It was detected with anti-mouse IgG) VH: EVQVQQSGPELVNPGASVRLSCKASGYIFTDYVIHWVRQKPGQGLEWIGYMNPYTDGPKYSDKIKDKAILTSDRSSNTVYMELRSLTSEDSAVYFCARDFNYYVGAMDFWGQGTSVTVSS VL: DVVLTQTPLSLPVSLGDQASVSCRSSQSLLHSNGNTYLHWYLQKPGQSPKLLIYKVSNRFSGVPDRFTGSGSGTDFTLKISRVEAEDLGVYFCSQSTHIWTFGGGTKLEIK", 9.60],
  ["Anti-TREML1 Antibody Clone 29F4 (antibody, V domains shown, It was detected with anti-mouse IgG) VH: EVQLQQSGPELVRPGASVKVSCKASGYIFTDYVIHWVKQKPGQGLEWFGYINPYTGGPKYSETAKGKATLTSDSSSNTAYMVLTSLTSEDSAVYYCTRDFNYYVGAMDFWGQGTSVTVSS VL: GAVLTQTPLSLPVSLGDQASISCKSTQSLVHSNGNTYVHWYLQKAGQSPKLLIYKVSNRFSGVPDRFIGSGSGTDFTLKISRVEAEDLGVYFCSQSTYVWTFGGGTKLEIE", 9.74]
]}

Attention now shifts to the item below.
Prompt: Tell us which pEC50 value is on record for Anti-TREML1 Antibody Clone 27D3 (antibody, V domains shown, It was detected with anti-mouse IgG) VH: DVQLQQSGPELVKPGASVKMSCKASGYTFTEYVIHWVKQRPGQGLEWFGYFNPYTGGSKFNEKFKDKATLTSDRSSNTVYMELYSLTSEDSAVYYCARDFNYYVGAMDYWGQGTSVTVSS VL: DVALTQTPLSLPVSLGDQASISCRSSQSLVHSNGNTYLHWYLQKSGQSPKLLIYKVSNRFSGVPDRFSGSGSVTEFTLKISRVEAEDLGVYFCSQSSHIWTFGGGTRLEIK
Response: 9.51
